- Measurement target: Human PD-L1/PD-1 (Homo sapiens, UniProt Q9NZQ7)
- Construct: TVMV protease cleavage site (C); made in house; host or cells: HEK293T cells
- Sequence (Q9NZQ7 with tags, fused parts or gaps): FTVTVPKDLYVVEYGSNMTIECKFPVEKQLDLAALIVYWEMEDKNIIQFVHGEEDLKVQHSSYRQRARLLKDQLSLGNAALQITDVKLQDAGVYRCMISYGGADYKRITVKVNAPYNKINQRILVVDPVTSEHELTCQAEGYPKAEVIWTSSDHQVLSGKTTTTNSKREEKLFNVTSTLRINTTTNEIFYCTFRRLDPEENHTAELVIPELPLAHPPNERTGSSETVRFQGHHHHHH
- Method summary: HTRF Human PD-L1/PD-1 binding assay (PD-1-Ig/PD-L1-His)
- Setup conditions: PD-L1-His 10 nM, PD-1-Ig 20 nM; class symbol; read-out: HTRF Human PD-L1/PD-1 Binding Assay IC50 Range
- From the text: Methods for Testing the Ability of Macrocyclic Peptides to Compete for the Binding of PD-1 to PD-L1 Using Homogenous Time-Resolved Fluorescence (HTRF) Binding Assays The ability of the macrocyclic peptides of the present disclosure to bind to PD-L1 was investigated using a PD-1/PD-L1 Homogenous Time-Resolved Fluorescence (HTRF) binding assay. Homogenous Time-Resolved Fluorescence (HTRF) Assays of Binding of Soluble PD-1 to Soluble PD-L1. […]
pIC50: −log10 of the molar value. Where a SMILES comes first, the peptide text is derived from it. Bridges are numbered along the chain shown (N, C = ends). [ ]: non-standard residue; d: D form. ξ: configuration not given here. Phe(4-F) = N[C@@H](Cc1ccc(F)cc1)C(=O)O; Bta = N[C@@H](Cc1csc2ccccc12)C(=O)O; NMeIle(3ξ) = CCC(C)[C@H](NC)C(=O)O; Hyp = O=C(O)[C@@H]1C[C@@H](O)CN1; NMeF = CN[C@@H](Cc1ccccc1)C(=O)O; NMeNle = CCCC[C@H](NC)C(=O)O; dPip = O=C(O)[C@H]1CCCCN1; NMeA = CN[C@@H](C)C(=O)O; Orn = NCCC[C@H](N)C(=O)O; dThz = O=C(O)[C@H]1CSCN1; ξC = NC(CS)C(=O)O; Sar = CNCC(=O)O
Metric: pIC50

>>> observed_value("CCCC[C@H]1C(=O)N2CCC[C@@H]2C(=O)N[C@@H](CC(=O)O)C(=O)N[C@@H](C(C)C)C(=O)N(C)[C@@H](C(C)CC)C(=O)N[C@@H](CCC(N)=O)C(=O)N2CCCC[C@@H]2C(=O)N[C@@H](Cc2c[nH]c3ccccc23)C(=O)N[C@@H](Cc2ccc(O)cc2)C(=O)N[C@@H](CCCN)C(=O)N[C@H](C(=O)NCC(N)=O)CSCC(=O)N[C@@H](Cc2ccc(F)cc2)C(=O)N(C)[C@@H](Cc2ccccc2)C(=O)N1C (stereo partly shown) [Example 9263] ({CH2CO}-[Phe(4-F)][NMeF][NMeNle][dP]DV[NMeIle(3ξ)]Q[dPip]WY[Orn]CG-NH2; thioether N-13)")
"5.00 to 6.00"
>>> observed_value("CCCC[C@H]1C(=O)N(C)CC(=O)N[C@@H](CC(=O)O)C(=O)N[C@@H](C)C(=O)N(C)[C@@H](Cc2ccccc2)C(=O)N[C@@H](Cc2ccc(O)cc2)C(=O)N2CSC[C@@H]2C(=O)N[C@@H](Cc2c[nH]c3ccccc23)C(=O)N[C@@H](Cc2ccc(O)cc2)C(=O)N[C@@H](CC(C)C)C(=O)N[C@H](C(=O)NCC(N)=O)CSCC(=O)N[C@@H](Cc2ccccc2)C(=O)N(C)[C@@H](Cc2ccccc2)C(=O)N1C [Example 10082] ({CH2CO}-F[NMeF][NMeNle][Sar]DA[NMeF]Y[dThz]WYLCG-NH2; thioether N-13)")
"6.00 to 7.00"
>>> observed_value("CCCC[C@H]1C(=O)N(C)[C@@H](CCCC)C(=O)N[C@@H](CCCNC(=N)N)C(=O)NC(C(=O)NCC(N)=O)CSCC(=O)N[C@@H](Cc2ccc(O)cc2)C(=O)N(C)[C@@H](C)C(=O)N[C@@H](CC(N)=O)C(=O)N2CCC[C@H]2C(=O)N[C@@H](CO)C(=O)N[C@@H](CO)C(=O)N2CCC[C@H]2C(=O)N[C@@H](Cc2c[nH]c3ccccc23)C(=O)N[C@@H](CO)C(=O)N[C@@H](Cc2c[nH]c3ccccc23)C(=O)N1C (stereo partly shown) [Example 10017] ({CH2CO}-Y[NMeA]NPSSPWSW[NMeNle][NMeNle]R[ξC]G-NH2; thioether N-14)")
"7.00 to 8.00"
>>> observed_value("CCCC[C@H]1C(=O)N(C)[C@@H](CCCC)C(=O)N[C@@H](CO)C(=O)NC(C(=O)NCC(N)=O)CSCC(=O)N[C@@H](Cc2ccc(O)cc2)C(=O)N(C)[C@@H](C)C(=O)N[C@@H](CC(N)=O)C(=O)N2CCC[C@H]2C(=O)N[C@@H](CC(N)=O)C(=O)N[C@@H](CC(C)C)C(=O)N2C[C@H](O)C[C@H]2C(=O)N[C@@H](Cc2c[nH]c3ccccc23)C(=O)N[C@@H](CO)C(=O)N[C@@H](Cc2csc3ccccc23)C(=O)N1C (stereo partly shown) [Example 9143] ({CH2CO}-Y[NMeA]NPNL[Hyp]WS[Bta][NMeNle][NMeNle]S[ξC]G-NH2; thioether N-14)")
"7.00 to 8.00"
